test.system: human Y2 receptor (human) (UniProt P49146)
Sequence (P49146 whole entry): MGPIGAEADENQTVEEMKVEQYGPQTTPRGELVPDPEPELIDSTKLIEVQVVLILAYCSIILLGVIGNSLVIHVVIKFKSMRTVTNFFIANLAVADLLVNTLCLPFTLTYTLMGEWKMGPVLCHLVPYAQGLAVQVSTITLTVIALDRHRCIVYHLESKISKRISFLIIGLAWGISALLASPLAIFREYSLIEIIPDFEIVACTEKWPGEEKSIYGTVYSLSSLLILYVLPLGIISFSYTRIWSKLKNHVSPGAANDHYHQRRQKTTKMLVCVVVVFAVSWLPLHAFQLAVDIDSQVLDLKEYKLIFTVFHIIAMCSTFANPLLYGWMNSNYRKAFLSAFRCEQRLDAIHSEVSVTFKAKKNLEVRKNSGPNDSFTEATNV
protocol.description: cell-based or functional assay
Non-standard residues stand in square brackets, D forms with d. *: point of attachment. 4‑guanidinomethylbenzoyl = N=C(N)NCc1ccc(C(=O)*)cc1; Tyr(3-F) = N[C@@H](Cc1ccc(O)c(F)c1)C(=O)O; Cyclohexanecarbonyl = O=C(C1CCCCC1)*; Ala(cPr) = N[C@@H](CC1CC1)C(=O)O; tBuAla = CC(C)(C)C[C@H](N)C(=O)O; 3Pal = N[C@@H](Cc1cccnc1)C(=O)O; 4Pal = N[C@@H](Cc1ccncc1)C(=O)O; Cha = N[C@@H](CC1CCCCC1)C(=O)O; hSer = N[C@@H](CCO)C(=O)O; Isobutyryl = CC(C)C(=O)*; Iva = CC[C@](C)(N)C(=O)O; Nle = CCCC[C@H](N)C(=O)O; Abu = CC[C@H](N)C(=O)O; Aib = CC(C)(N)C(=O)O; Bz = O=C(c1ccccc1)*
endpoint.name: GBA EC50 Ratio (vs PYY(3-36)), [35S]GTPγS

[[record]]
binder = "Ac-S[dP][Iva]H[Cha][Cha]NL[Aib]TRQR[Cha]-NH2 (SMILES CC[C@](C)(NC(=O)[C@H]1CCCN1C(=O)[C@H](CO)NC(C)=O)C(=O)N[C@@H](Cc1c[nH]cn1)C(=O)N[C@@H](CC1CCCCC1)C(=O)N[C@@H](CC1CCCCC1)C(=O)N[C@@H](CC(N)=O)C(=O)N[C@@H](CC(C)C)C(=O)NC(C)(C)C(=O)N[C@H](C(=O)N[C@@H](CCCNC(=N)N)C(=O)N[C@@H](CCC(N)=O)C(=O)N[C@@H](CCCNC(=N)N)C(=O)N[C@@H](CC1CCCCC1)C(N)=O)[C@@H](C)O) [Ac-[D-Pro24, Iva25, Cha27,28,36, Aib31]-PYY(23-36)]"
value_observed = 3.7

[[record]]
binder = "{4‑guanidinomethylbenzoyl}-[Nle]H[Cha][Cha]NR[Cha]TRQR[Cha]-NH2 (SMILES CCCC[C@H](NC(=O)c1ccc(CNC(=N)N)cc1)C(=O)N[C@@H](Cc1c[nH]cn1)C(=O)N[C@@H](CC1CCCCC1)C(=O)N[C@@H](CC1CCCCC1)C(=O)N[C@@H](CC(N)=O)C(=O)N[C@@H](CCCNC(=N)N)C(=O)N[C@@H](CC1CCCCC1)C(=O)N[C@H](C(=O)N[C@@H](CCCNC(=N)N)C(=O)N[C@@H](CCC(N)=O)C(=O)N[C@@H](CCCNC(=N)N)C(=O)N[C@@H](CC1CCCCC1)C(N)=O)[C@@H](C)O) [4-Guanidinomethylbenzoyl-[Nle25, Cha27,28,31,36, Arg30]-PYY(25-36)]"
value_observed = 4.5

[[record]]
binder = "Cyclohexanecarbonyl-RH[Cha][Ala(cPr)]NL[Aib]TRQR[Cha]-NH2 (SMILES CC(C)C[C@H](NC(=O)[C@H](CC(N)=O)NC(=O)[C@H](CC1CC1)NC(=O)[C@H](CC1CCCCC1)NC(=O)[C@H](Cc1c[nH]cn1)NC(=O)[C@H](CCCNC(=N)N)NC(=O)C1CCCCC1)C(=O)NC(C)(C)C(=O)N[C@H](C(=O)N[C@@H](CCCNC(=N)N)C(=O)N[C@@H](CCC(N)=O)C(=O)N[C@@H](CCCNC(=N)N)C(=O)N[C@@H](CC1CCCCC1)C(N)=O)[C@@H](C)O) [Cyclohexanecarbonyl-[Cha27,36, Ala(cPr)28, Aib31]-PYY(25-36)]"
value_observed = 23

[[record]]
binder = "Bz-RHH[Cha]NL[Aib]TRQR[Cha]-NH2 (SMILES CC(C)C[C@H](NC(=O)[C@H](CC(N)=O)NC(=O)[C@H](CC1CCCCC1)NC(=O)[C@H](Cc1c[nH]cn1)NC(=O)[C@H](Cc1c[nH]cn1)NC(=O)[C@H](CCCNC(=N)N)NC(=O)c1ccccc1)C(=O)NC(C)(C)C(=O)N[C@H](C(=O)N[C@@H](CCCNC(=N)N)C(=O)N[C@@H](CCC(N)=O)C(=O)N[C@@H](CCCNC(=N)N)C(=O)N[C@@H](CC1CCCCC1)C(N)=O)[C@@H](C)O) [Benzoyl-[His27, Cha28,36, Aib31]-PYY(25-36)]"
value_observed = 4.3

[[record]]
binder = "Ac-S[dP]R[hSer][Cha][Aib]NL[Aib]TRQR[Cha]-NH2 (SMILES CC(=O)N[C@@H](CO)C(=O)N1CCC[C@@H]1C(=O)N[C@@H](CCCNC(=N)N)C(=O)N[C@@H](CCO)C(=O)N[C@@H](CC1CCCCC1)C(=O)NC(C)(C)C(=O)N[C@@H](CC(N)=O)C(=O)N[C@@H](CC(C)C)C(=O)NC(C)(C)C(=O)N[C@H](C(=O)N[C@@H](CCCNC(=N)N)C(=O)N[C@@H](CCC(N)=O)C(=O)N[C@@H](CCCNC(=N)N)C(=O)N[C@@H](CC1CCCCC1)C(N)=O)[C@@H](C)O) [Ac-[D-Pro24, Hse26, Cha27,36, Aib28,31]-PYY(23-36)]"
value_observed = 5.4

[[record]]
binder = "Ac-S[dP]R[3Pal][Cha][Cha]NL[Aib]TRQR[Cha]-NH2 (SMILES CC(=O)N[C@@H](CO)C(=O)N1CCC[C@@H]1C(=O)N[C@@H](CCCNC(=N)N)C(=O)N[C@@H](Cc1cccnc1)C(=O)N[C@@H](CC1CCCCC1)C(=O)N[C@@H](CC1CCCCC1)C(=O)N[C@@H](CC(N)=O)C(=O)N[C@@H](CC(C)C)C(=O)NC(C)(C)C(=O)N[C@H](C(=O)N[C@@H](CCCNC(=N)N)C(=O)N[C@@H](CCC(N)=O)C(=O)N[C@@H](CCCNC(=N)N)C(=O)N[C@@H](CC1CCCCC1)C(N)=O)[C@@H](C)O) [Ac-[D-Pro24, Pya(3)26, Cha27,28,36, Aib31]-PYY(23-36)]"
value_observed = 1.2

[[record]]
binder = "Isobutyryl-R[Abu][Cha][Cha]NL[Aib]TRQR[Tyr(3-F)]-NH2 (SMILES CC[C@H](NC(=O)[C@H](CCCNC(=N)N)NC(=O)C(C)C)C(=O)N[C@@H](CC1CCCCC1)C(=O)N[C@@H](CC1CCCCC1)C(=O)N[C@@H](CC(N)=O)C(=O)N[C@@H](CC(C)C)C(=O)NC(C)(C)C(=O)N[C@H](C(=O)N[C@@H](CCCNC(=N)N)C(=O)N[C@@H](CCC(N)=O)C(=O)N[C@@H](CCCNC(=N)N)C(=O)N[C@@H](Cc1ccc(O)c(F)c1)C(N)=O)[C@@H](C)O) [Isobutanoyl-[Abu26, Cha27,28, Aib31, Tyr(3F)36]-PYY(25-36)]"
value_observed = 20

[[record]]
binder = "Ac-E[dP]R[4Pal][Cha][tBuAla]NK[Aib]TRQR[Cha]-NH2 (SMILES CC(=O)N[C@@H](CCC(=O)O)C(=O)N1CCC[C@@H]1C(=O)N[C@@H](CCCNC(=N)N)C(=O)N[C@@H](Cc1ccncc1)C(=O)N[C@@H](CC1CCCCC1)C(=O)N[C@@H](CC(C)(C)C)C(=O)N[C@@H](CC(N)=O)C(=O)N[C@@H](CCCCN)C(=O)NC(C)(C)C(=O)N[C@H](C(=O)N[C@@H](CCCNC(=N)N)C(=O)N[C@@H](CCC(N)=O)C(=O)N[C@@H](CCCNC(=N)N)C(=O)N[C@@H](CC1CCCCC1)C(N)=O)[C@@H](C)O) [Ac-[Glu23, D-Pro24, Pya(4)26, Cha27,36, Leu(Me)28, Lys30, Aib31]-PYY(23-36)]"
value_observed = 0.86

